Origin of measurements: patent US20150329558A1

measured_target: UniProt Q14524
test_details: Late INa screening assay (QPatch whole cell patch clamp)
Type: cell-based
experimental_conditions: percent block of late INa, compound at 1 μM, 10 μM Tefluthrin, HEK293 hNav1.5; read-out: Late INa 1 μM
Use true when the recorded inhibition at 1 µM is no lower than 30%; use false when it is lower.

Solved cases below.
compound="CC1(C)Oc2ccc(-c3ccc(OC(F)(F)F)cc3)cc2C(=O)N1Cc1ccccn1 [VIII-13]" label=false
compound="O=C(c1ncc[nH]1)N1CCc2ccc(-c3ccc(C(F)(F)F)cc3)cc2C1 [IX-57]" label=true
compound="O=C(NCc1ncccn1)N1CCc2ccc(-c3ccc(C(F)(F)F)cc3)cc2C1 [IX-89]" label=true
compound="Cc1nc(Cn2nnc3ccc(-c4ccc(OC(F)(F)F)cc4)cc3c2=O)co1 [II-99]" label=true
compound="Cc1cc(C)nc(Cn2ncc3ccc(-c4ccc(OC(F)(F)F)cc4)cc3c2=O)n1 [III-22]" label=true

# bool: inhibition at 1 µM of O=c1c2cc(-c3ccc(OC(F)(F)F)cc3)ccc2nnn1CCn1ccc(C(F)(F)F)n1 [II-52] >= 30% true

# bool: inhibition at 1 µM of Cc1cnc(Cn2nnc3ccc(-c4ccc(OC(F)(F)F)cc4)cc3c2=O)o1 [II-96] >= 30% true

# bool: inhibition at 1 µM of O=C(c1ccncn1)N1CCc2ccc(-c3ccc(C(F)(F)F)cc3)cc2C1 [IX-32] >= 30% false

# bool: inhibition at 1 µM of O=C(N1CCC1)N1CCc2ccc(-c3ccc(C(F)(F)F)cc3)cc2C1 [IX-88] >= 30% false

# bool: inhibition at 1 µM of Cc1nc(Cn2nnc3ccc(-c4ccc(OCC(F)(F)F)nc4)cc3c2=O)no1 [Compound V-2] >= 30% false

# bool: inhibition at 1 µM of O=c1c2cc(-c3ccc(OC(F)(F)F)cc3)ccc2nnn1CCOc1nccc(-c2noc(C3CC3)n2)n1 [II-60] >= 30% true

# bool: inhibition at 1 µM of O=c1c2cc(-c3ccc(OC(F)(F)F)cc3)ccc2nnn1CCn1cccn1 [II-13] >= 30% true

# bool: inhibition at 1 µM of O=c1c2cc(-c3ccc(OC(F)(F)F)cc3)ccc2cnn1Cc1cc(-c2ccccn2)on1 [III-41] >= 30% false

# bool: inhibition at 1 µM of O=C(NCc1ncccn1)N1CCc2ccc(-c3ccc(OC(F)(F)F)cc3)cc2C1 [IX-123] >= 30% false

# bool: inhibition at 1 µM of CCOC(=O)Cn1cc(C(=O)N2CCc3ccc(-c4ccc(C(F)(F)F)cc4)cc3C2)nn1 [IX-119] >= 30% false

# bool: inhibition at 1 µM of O=C(N1CCc2ccc(-c3ccc(C(F)(F)F)cc3)cc2C1)N1CCC[C@H]1CO [IX-102] >= 30% false

# bool: inhibition at 1 µM of O=c1c2cc(-c3ccc(OC(F)(F)F)cc3)ccc2nnn1CC1(CN2CCCC2)CC1 [II-63] >= 30% true

###

measured_target: wild-type human cardiac sodium channel, hNav1.5 (peak INa) (Homo sapiens, UniProt Q14524)
Sequence (Q14524 whole entry): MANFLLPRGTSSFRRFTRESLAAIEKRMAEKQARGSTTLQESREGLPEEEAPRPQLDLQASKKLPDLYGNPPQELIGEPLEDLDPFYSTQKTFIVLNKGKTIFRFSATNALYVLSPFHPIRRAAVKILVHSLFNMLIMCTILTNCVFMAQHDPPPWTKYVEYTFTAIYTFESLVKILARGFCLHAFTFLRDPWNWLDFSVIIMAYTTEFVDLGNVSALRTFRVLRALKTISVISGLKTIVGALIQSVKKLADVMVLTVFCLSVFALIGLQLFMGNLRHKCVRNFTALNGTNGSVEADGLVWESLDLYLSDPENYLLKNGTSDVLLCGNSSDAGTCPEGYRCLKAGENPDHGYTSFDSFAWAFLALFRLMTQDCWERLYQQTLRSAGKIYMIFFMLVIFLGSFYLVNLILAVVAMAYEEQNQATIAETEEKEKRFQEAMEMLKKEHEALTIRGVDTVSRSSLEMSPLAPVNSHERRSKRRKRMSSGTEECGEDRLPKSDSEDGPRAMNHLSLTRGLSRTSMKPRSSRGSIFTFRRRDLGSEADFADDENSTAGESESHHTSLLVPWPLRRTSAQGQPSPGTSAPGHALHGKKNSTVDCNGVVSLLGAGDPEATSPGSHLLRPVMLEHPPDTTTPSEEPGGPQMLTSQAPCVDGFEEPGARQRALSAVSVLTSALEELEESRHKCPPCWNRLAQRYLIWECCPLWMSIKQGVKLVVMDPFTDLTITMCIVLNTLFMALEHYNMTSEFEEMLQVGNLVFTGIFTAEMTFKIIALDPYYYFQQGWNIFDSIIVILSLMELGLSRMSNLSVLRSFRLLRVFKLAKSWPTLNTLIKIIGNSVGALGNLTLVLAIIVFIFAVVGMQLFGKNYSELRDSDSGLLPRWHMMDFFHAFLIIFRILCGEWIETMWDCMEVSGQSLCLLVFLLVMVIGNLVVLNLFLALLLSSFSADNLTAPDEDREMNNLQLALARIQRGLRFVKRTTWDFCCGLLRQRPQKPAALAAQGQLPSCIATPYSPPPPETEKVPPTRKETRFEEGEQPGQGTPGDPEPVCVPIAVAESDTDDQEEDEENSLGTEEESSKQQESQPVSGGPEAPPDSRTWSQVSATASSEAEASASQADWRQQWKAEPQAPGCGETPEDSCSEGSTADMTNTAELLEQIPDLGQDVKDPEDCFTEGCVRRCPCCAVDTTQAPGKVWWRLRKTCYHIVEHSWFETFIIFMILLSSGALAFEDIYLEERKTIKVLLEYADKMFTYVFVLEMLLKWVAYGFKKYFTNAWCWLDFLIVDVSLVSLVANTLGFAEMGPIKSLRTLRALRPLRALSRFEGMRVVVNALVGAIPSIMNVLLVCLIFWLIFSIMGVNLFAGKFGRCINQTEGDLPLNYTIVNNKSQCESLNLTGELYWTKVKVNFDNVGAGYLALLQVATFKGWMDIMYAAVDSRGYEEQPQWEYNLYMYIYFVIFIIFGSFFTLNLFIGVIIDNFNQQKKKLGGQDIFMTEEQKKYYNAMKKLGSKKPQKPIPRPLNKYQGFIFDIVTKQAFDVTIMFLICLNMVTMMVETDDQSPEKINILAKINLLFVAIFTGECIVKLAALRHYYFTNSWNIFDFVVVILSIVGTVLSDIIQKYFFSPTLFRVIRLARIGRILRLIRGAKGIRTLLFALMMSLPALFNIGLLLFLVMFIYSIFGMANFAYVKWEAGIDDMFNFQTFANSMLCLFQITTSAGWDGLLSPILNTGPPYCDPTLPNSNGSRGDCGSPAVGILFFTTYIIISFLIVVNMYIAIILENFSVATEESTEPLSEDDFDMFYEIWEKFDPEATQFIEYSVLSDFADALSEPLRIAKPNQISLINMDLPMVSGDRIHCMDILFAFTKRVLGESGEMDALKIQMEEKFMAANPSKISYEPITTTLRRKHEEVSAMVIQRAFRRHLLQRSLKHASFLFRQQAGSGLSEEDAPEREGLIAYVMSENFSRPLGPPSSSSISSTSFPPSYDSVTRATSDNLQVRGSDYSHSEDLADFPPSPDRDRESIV
test_details: Peak INa screening assay (tonic and use-dependent block)
Assay type: cell-based
experimental_conditions: use-dependent block of peak INa, 3 Hz, 1 μM; read-out: Peak UDB 1 μM
Give inhibition at 1 µM for every item shown.
Show the value, then the unit it is measured in.

structure_smiles_string=O=c1c2cc(-c3ccc(OC(F)(F)F)cc3)ccc2cnn1Cc1nccc(OCC2CC2)n1 result=15%

Working through the 3 compounds below one at a time, give inhibition at 1 µM for each.
1. COC(=O)C1(Cn2nnc3ccc(-c4ccc(OC(F)(F)F)cc4)cc3c2=O)CC1
2. O=c1c2cc(-c3ccc(OC(F)(F)F)cc3)ccc2nnn1CCc1ncccn1
3. O=C1c2cc(-c3ccc(C(F)(F)F)cc3)ccc2SCN1Cc1ccccc1Cl

1. 3%
2. 13%
3. 35%

Working through the 7 compounds below one at a time, give inhibition at 1 µM for each.
1. O=c1c2cc(-c3ccc(OC(F)(F)F)cc3)ccc2nnn1CC1(CN2CCOCC2)CC1
2. O=C(c1ncccn1)N1CCc2ccc(-c3ccc(C(F)(F)F)cc3)cc2C1
3. O=c1c2cc(-c3ccc(OC(F)(F)F)cc3)ccc2cnn1CCOc1ccccn1
4. O=c1c2cc(-c3ccc(OC(F)(F)F)cc3)ccc2nnn1CCc1ccncn1
5. C[C@@H]1CC[C@@H](C)N1C(=O)N1CCc2ccc(-c3ccc(C(F)(F)F)cc3)cc2C1
6. O=C1c2cc(-c3ccc(OC(F)(F)F)cc3)ccc2SCN1Cc1ncccc1F
7. Cc1noc(Cn2cnc3ccc(-c4ccc(OC(F)(F)F)cc4)cc3c2=O)n1

["29%", "17%", "2%", "7%", "3%", "31%", "7%"]

Working through the 2 compounds below one at a time, give inhibition at 1 µM for each.
1. O=c1c2cc(-c3ccc(OC(F)(F)F)cc3)ccc2cnn1Cc1nccc(C2CC2)n1
2. Cc1ccnn1CCn1ncc2ccc(-c3ccc(OC(F)(F)F)cc3)cc2c1=O

1: 12%; 2: 23%

###

test_details: Microsomal stability assay, human
Type: in vitro ADME
experimental_conditions: metabolic stability, human liver microsomes 0.5 mg/mL, substrate 3 uM
Give MS Human THalf for every item shown.
Show the value, then the unit it is measured in.

Example cases with answers are listed next.
compound="O=C(N1CCCC1)N1CCc2ccc(-c3ccc(C(F)(F)F)cc3)cc2C1 [IX-53]" result="198 min"
compound="O=C(N1CCc2ccc(-c3ccc(C(F)(F)F)cc3)cc2C1)N1CC(O)C1 [IX-108]" result="245 min"
compound="O=c1c2cc(-c3ccc(OC(F)(F)F)cc3)ccc2cnn1CCOc1nccc(C2CC2)n1 [III-29]" result="19 min"
compound="O=C(NCc1ccco1)N1CCc2ccc(-c3ccc(C(F)(F)F)cc3)cc2C1 [IX-48]" result="80 min"
compound="O=c1c2cc(-c3ccc(OC(F)(F)F)cc3)ccc2nnn1CCOc1ncccn1 [II-32]" result="392 min"
compound="Cc1coc(Cn2nnc3ccc(-c4ccc(OC(F)(F)F)cc4)cc3c2=O)n1 [II-97]" result="206 min"
compound="O=c1c2cc(-c3ccc(OC(F)(F)F)cc3)ccc2nnn1CCOc1nccc(-c2noc(C3CC3)n2)n1 [II-60]" result="362 min"

Now for a further compound.
Look up MS Human THalf: O=c1c2cc(-c3ccc(OC(F)(F)F)cc3)ccc2cnn1CCc1ccncn1 [III-36] 46 min
